target: D(2) dopamine receptor (Homo sapiens) (UniProt P14416)
Sequence (P14416 whole entry, looked up): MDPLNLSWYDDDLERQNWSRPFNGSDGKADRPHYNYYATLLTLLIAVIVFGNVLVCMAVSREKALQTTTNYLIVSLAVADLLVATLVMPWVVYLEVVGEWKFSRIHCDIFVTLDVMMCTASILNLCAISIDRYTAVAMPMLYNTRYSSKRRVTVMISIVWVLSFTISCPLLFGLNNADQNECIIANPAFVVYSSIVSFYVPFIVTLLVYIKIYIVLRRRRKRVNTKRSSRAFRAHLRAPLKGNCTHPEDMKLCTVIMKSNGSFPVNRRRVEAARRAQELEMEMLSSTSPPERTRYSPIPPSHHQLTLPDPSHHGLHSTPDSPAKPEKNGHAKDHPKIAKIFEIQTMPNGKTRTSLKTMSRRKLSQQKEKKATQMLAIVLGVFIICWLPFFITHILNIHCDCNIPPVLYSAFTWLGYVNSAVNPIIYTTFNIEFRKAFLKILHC
assayInfo: Dopamine D2 receptor (DRD2) small molecule antagonists, cell-based qHTS assay (AID 1963595)
setupConditions: HEK293-DRD2 cAMP HTRF antagonist mode; series mostly up to 92.4 µM
Inconclusive results are not listed. The source made the active and inactive calls. Calls follow the shape of the dose curve; as a rule, active = well fitted inhibition curve with a large enough effect in the signal ratio in the repeat runs, with a control signal flat; inconclusive = weak or mixed curves, or effect the other way; inactive = flat fitted curve, though single readings scatter; the % refers to the signal ratio.
reportedEndpoint: activity change, negative = inhibition

Here are 5 compounds together with their reported answers.
CC(=O)C1CCCCC1=O (configuration not stated): inactive
C=COCCCCO: inactive
COC(C)(OC)OC: inactive
COCCc1ccccn1: inactive
Cc1c(N=C=O)cccc1N=C=O: inactive

Lab entry: D(2) dopamine receptor (Homo sapiens) (UniProt P14416) assay, compound `COC(=O)CS` , activity change, negative = inhibition = inactive

The recorded activity change, negative = inhibition with D(2) dopamine receptor (Homo sapiens) (UniProt P14416) for `CCCCOC(=O)/C=C\C(=O)OCCCC` was inactive

activity change, negative = inhibition for D(2) dopamine receptor (Homo sapiens) (UniProt P14416) with input COc1ccc(-n2nc(C(F)F)cc2-c2ccc(S(C)=O)cc2)cc1 (configuration not stated) equals inactive

Case `CC(=O)NO` , D(2) dopamine receptor (Homo sapiens) (UniProt P14416), activity change, negative = inhibition recorded as inactive

GET /values?item= `Nc1cc(C(F)(F)F)ccc1S` &system= D(2) dopamine receptor (Homo sapiens) (UniProt P14416) returns activity change, negative = inhibition: inactive

So the reported activity change, negative = inhibition for `CC(C)(C)c1cccc(O)c1` , on D(2) dopamine receptor (Homo sapiens) (UniProt P14416), turned out to be inactive

# value of activity change, negative = inhibition, D(2) dopamine receptor (Homo sapiens) (UniProt P14416), item CC1CCCO1 (configuration not stated) = inactive

Note to self: activity change, negative = inhibition of `Cn1c(=O)c2c(ncn2CC(=O)O)n(C)c1=O` with D(2) dopamine receptor (Homo sapiens) (UniProt P14416) was inactive

Bench note, D(2) dopamine receptor (Homo sapiens) (UniProt P14416): entry `CNCCc1ccccn1` , its activity change, negative = inhibition = inactive

Tested system D(2) dopamine receptor (Homo sapiens) (UniProt P14416); activity change, negative = inhibition recorded for `COCCC(=O)OC` was inactive

Lab note: compound `CO[C@H]1O[C@H](CO)[C@@H](O)[C@H](O)[C@H]1O` tested on D(2) dopamine receptor (Homo sapiens) (UniProt P14416); recorded activity change, negative = inhibition was inactive

// assay D(2) dopamine receptor (Homo sapiens) (UniProt P14416), entry `CCCCCCCCCCCCCCNCCO` , activity change, negative = inhibition value = inactive
